test system: Isochris Galbana; experiment: Toxicity test LC50 on Isochris Galbana; assay type: cell-based
LC50 Isochris Galbana reference
property: LC50 Isochris Galbana (ppm)

[[record]]
compound = "CC1(S(=O)(=O)O)CC(=O)c2ccccc2C1=O.Cc1cc(C)[nH]c(=O)n1 (centres unmarked)"
numeric_result = 0.5

[[record]]
compound = "Cc1ccc2c(c1)C(=O)c1ccccc1C2=O"
numeric_result = 0.5

[[record]]
compound = "CC1=CC(=O)c2ccccc2C1=O [Menadione, 2-methyl-1,4-naphthalenedione, reference compound]"
numeric_result = 0.05

[[record]]
compound = "CC1(S(=O)(=O)O)CC(=O)c2ccccc2C1=O.NC(=O)c1cccnc1 (centres unmarked) [MNB, menadione nicotinamide bisulfite]"
numeric_result = 0.5

[[record]]
compound = "CC1=CC(=O)c2c(O)cccc2C1=O [2-methyl-5-hydroxy-1,4-naphthalenedione]"
numeric_result = 0.5

